Entry source: BindingDB's records for doi:10.1021/jm960274q

Give measured Ki for each item. Keep answers brief.
molecular target: Endothelin receptor type B (Cavia porcellus); assay: Binding affinity towards Endothelin B receptor by measuring its ability to displace [125I]ET-3 from guinea pig cerebellum
Answers are plain numbers, in nM.

Molecule	Ki (nM)
COc1cc(OC)nc(OC(C(=O)O)C(OC)(c2ccccc2F)c2ccccc2F)n1 (centres undefined)	6000
COc1cc(OC)nc(OC(C(=O)O)C(OC)(c2cccc(F)c2)c2cccc(F)c2)n1 (centres undefined)	1800
COc1cc(OC)nc(OC(C(=O)O)C(OC)(c2ccc(Cl)cc2)c2ccc(Cl)cc2)n1 (centres undefined)	1300

Dear colleague, could you send me Ki for each of the items below? Thanks.
1. COc1cc(OC)nc(OC(C(=O)O)C(O)(c2ccccc2)c2ccccc2)n1 (centres undefined)
2. COc1cc(OC)nc(OC(C(=O)O)C(OC)(c2cccc(C)c2)c2cccc(C)c2)n1 (centres undefined)
3. COc1cc(OC)nc(OC(C(=O)O)C(OC)(c2ccc(C)cc2)c2ccc(C)cc2)n1 (centres undefined)
4. CCc1cc(C)nc(OC(C(=O)O)C(OC)(c2ccccc2)c2ccccc2)n1 (centres undefined)
5. COc1cc(OC)nc(OC(C(=O)O)C(Oc2ccccc2)(c2ccccc2)c2ccccc2)n1 (centres undefined)

[3500, 1300, 1000, 160, 1500]

Can you share its Ki? I mean this molecule: CCOc1cc(OCC)nc(OC(C(=O)O)C(OC)(c2ccccc2)c2ccccc2)n1 (centres undefined) 2500
